Provenance of the data: patent US9072759B2

- assay: clinical
- stated conditions: in vivo
readout: half-life

Per the record, CC[C@H]1OC(=O)[C@@](C)(F)C(=O)[C@H](C)[C@@H](OC2OC(C)CC(N(C)C)C2O)[C@@](C)(OC)C[C@@H](C)C(=O)[C@H](C)[C@H]2N(CCCCn3cc(-c4cccc(N)c4)nn3)C(=O)O[C@]12C (stereo partly shown) has half-life of 2.2 to 7.9 h

----------
- assay: clinical
- stated conditions: in vivo
readout: Tmax

Per the record, CC[C@H]1OC(=O)[C@@](C)(F)C(=O)[C@H](C)[C@@H](OC2OC(C)CC(N(C)C)C2O)[C@@](C)(OC)C[C@@H](C)C(=O)[C@H](C)[C@H]2N(CCCCn3cc(-c4cccc(N)c4)nn3)C(=O)O[C@]12C (stereo partly shown) [CEM-101] has Tmax of 1.5 to 6 h

----------
- assay: in vivo
- stated conditions: monkey
readout: Kp
// print number alone

Per the record, CC[C@H]1OC(=O)[C@@](C)(F)C(=O)[C@H](C)[C@@H](OC2OC(C)CC(N(C)C)C2O)[C@@](C)(OC)C[C@@H](C)C(=O)[C@H](C)[C@H]2N(CCCCn3cc(-c4cccc(N)c4)nn3)C(=O)O[C@]12C (stereo partly shown) has Kp of 54

----------
- assay: in vivo
- stated conditions: rat
readout: Kp

Per the record, CC[C@H]1OC(=O)[C@@](C)(F)C(=O)[C@H](C)[C@@H](OC2OC(C)CC(N(C)C)C2O)[C@@](C)(OC)C[C@@H](C)C(=O)[C@H](C)[C@H]2N(CCCCn3cc(-c4cccc(N)c4)nn3)C(=O)O[C@]12C (stereo partly shown) has Kp of 5
